system: K86415-001-R-J1-PDC complex spheroids, viability; test: Anticancer human tumor K86415-001-R-J1-PDC patient-derived lung adenocarcinoma cell line growth inhibition [RAS]; details: second compound 0.01 µM; first compound 0.1 µM; active = viability on the fitted dose curve at most 10% of control; inactive = the rest;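 note: spheroids exposed to agents for seven days before readout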
A correct response names exactly one class from active, inactive

Known results for compounds:
query: Check the results log: what was the call for CC1(O)CCCC1n1c(=O)c(C(F)F)cc2cnc(NC3CCN(S(C)(=O)=O)CC3)nc21 (stereo not drawn) + C=CC(=O)N1CCN(c2nc(OCC3CCCN3C)nc3c(F)c(-c4nc(N)cc(C)c4C(F)(F)F)c(Cl)cc23)C(C)C1 ?
result: inactive

query: Check the results log: what was the call for CCN1CCN(Cc2ccc(Nc3ncc(F)c(-c4cc(F)c5nc(C)n(C(C)C)c5c4)n3)nc2)CC1 + C=CC(=O)N1CCN(c2nc(OCC3CCCN3C)nc3c(F)c(-c4nc(N)cc(C)c4C(F)(F)F)c(Cl)cc23)C(C)C1 ?
result: inactive

query: Check the results log: what was the call for CCC(CC)c1cc(NC2CCC(N)C2)n2nccc2n1 (stereo not drawn) + C=CC(=O)N1CCN(c2nc(OCC3CCCN3C)nc3c(F)c(-c4nc(N)cc(C)c4C(F)(F)F)c(Cl)cc23)C(C)C1 ?
result: inactive

query: Check the results log: what was the call for C=CC(=O)Nc1cc(Nc2nccc(-c3cn(C)c4ccccc34)n2)c(OC)cc1N(C)CCN(C)C + C=CC(=O)N1CCN(c2nc(OCC3CCCN3C)nc3c(F)c(-c4nc(N)cc(C)c4C(F)(F)F)c(Cl)cc23)C(C)C1 ?
result: active

query: Check the results log: what was the call for CC(C)NCC(C(=O)N1CCN(c2ncnc3c2C(C)CC3O)CC1)c1ccc(Cl)cc1 (stereo not drawn) + C=CC(=O)N1CCN(c2nc(OCC3CCCN3C)nc3c(F)c(-c4nc(N)cc(C)c4C(F)(F)F)c(Cl)cc23)C(C)C1 ?
result: inactive

***
query: Check the results log: what was the call for Cc1nc(N2CCC3(CC2)COC(C)C3N)c(CO)nc1Sc1ccnc(N)c1Cl (stereo not drawn) + C=CC(=O)N1CCN(c2nc(OCC3CCCN3C)nc3c(F)c(-c4nc(N)cc(C)c4C(F)(F)F)c(Cl)cc23)C(C)C1 ?
result: active

query: Check the results log: what was the call for Nc1ccn(C2OC(CO)C(O)C2(F)F)c(=O)n1 (stereo not drawn) + C=CC(=O)N1CCN(c2nc(OCC3CCCN3C)nc3c(F)c(-c4nc(N)cc(C)c4C(F)(F)F)c(Cl)cc23)C(C)C1 ?
result: inactive

query: Check the results log: what was the call for CC(=O)OC12COC1CC(O)C1(C)C(=O)C(O)C3=C(C)C(OC(=O)C(O)C(NC(=O)OC(C)(C)C)c4ccccc4)CC(O)(C(OC(=O)c4ccccc4)C21)C3(C)C (stereo not drawn) + C=CC(=O)N1CCN(c2nc(OCC3CCCN3C)nc3c(F)c(-c4nc(N)cc(C)c4C(F)(F)F)c(Cl)cc23)C(C)C1 ?
result: inactive
